# protocol notes: NCI Yeast Anticancer Drug Screen. Data for the sgs1 mgt1 strain (AID 161)
# condition context: S. cerevisiae sgs1 mgt1 strain, at 50.0 µM, hits give high values
Compounds without any hit were thinned out: in the full panel of roughly 79,000, 15% have a hit.
Entries get a class label from measured growth inhibition. See ranges: bin A: < -10%; bin B: ≥ -10% and < 10%; bin C: ≥ 10%

Example results:
{"columns": ["molecule", "classification"],
 "data": [
  ["COc1cccc(NCC(=O)Nn2c(-c3ccccc3)nc3ccccc3c2=O)c1", "bin A"],
  ["CC(C)=CCCc1ccc2c(c1)C(=O)c1cc3c(cc1C2=O)OCO3", "bin C"],
  ["CCCCCc1ccc(C)cc1OC(C)=O", "bin B"],
  ["O=Nc1c(O)[nH]c2c(Cl)cccc12", "bin A"],
  ["Clc1cccc(Cl)c1/C=N/N1CCN(/N=C/c2c(Cl)cccc2Cl)CC1", "bin C"]
]}

## Input Field: class (growth inhibition) — entry: `CC(=O)NNc1nc(C)c(C(/C=C/c2ccccc2O)=N/N=C(N)N)s1`
## Output bin A

## Input And what about the molecule CC1=C(C(=O)CC(=O)C(=O)NC2C3CC4CC(C3)CC2C4)Sc2ccccc2N1 (stereo not given) ?
## Output bin B

## Input Now try O=C1C2C3CCC(C3)C2C(=O)N1CCO (stereo not given) .
## Output bin B

## Input Also, CCN(CC)CCC1CC/C(=C\c2ccc(OC)cc2)C1=O (stereo not given) please.
## Output bin C

## Input And for CC(C)[N+](=C1O[B-](c2ccccc2)(c2ccccc2)O[B-]1(c1ccccc1)[C+]1CCCCC1)C(C)C (stereo not given) ?
## Output bin C

## Input What would you report for `CN(/N=C/C=N/N(C)C1=NCCN1)C1=NCCN1` ?
## Output bin B

## Input And `C/C(C/C(C)=N/C(N)=S)=N\C(N)=S` ?
## Output bin A

## Input Param item: `CC(C)(C)C(=O)/C=C(\OB(F)F)C(C)(C)C`
## Output bin B

## Input Param item: `O=[N+]([O-])c1cc(Cl)cc2cc(Br)cnc12`
## Output bin A

## Input Next up: CC(=O)NC1CC2c3ccccc3C1([N+](=O)[O-])c1ccccc12 (stereo not given)
## Output bin C

## Input How about O/N=C1/C(=C/c2ccccc2)CCCC1C(NO)c1ccccc1 (stereo not given) ?
## Output bin C

## Input Same lookup for `CC(C)(CCCOc1ccccc1)NC(=O)c1ccccc1` , please.
## Output bin B

## Input Same again, this time with COc1ccc(N)c(C(O)CCNC(C)=O)c1 (stereo not given)
## Output bin A

## Input Can you handle `Cc1cccc(NC(=O)Nc2ccccc2)n1` next?
## Output bin B

## Input Similarly, `COc1cc(O)c(C(=O)CC(C)=O)c(OC)c1` ?
## Output bin B

###

# protocol notes: NCI Yeast Anticancer Drug Screen. Data for the cln2 rad14 strain (AID 165)
# condition context: S. cerevisiae cln2 rad14 strain, at 50.0 µM, hits give high values
The panel holds about 79,000 compounds, 15% with a hit somewhere; the sample as a whole holds those more often.
Cut-off -10% on growth inhibition, inclusive. At or above means T; below means F.

Some solved entries appear below for comparison.
{"columns": ["compound", "classification"],
 "data": [
  ["O=c1[nH]c2ccc([N+](=O)[O-])cc2nc1/C=C(\\O)c1ccccc1", "F"],
  ["C/C(=N/Nc1ccc([N+](=O)[O-])cc1[N+](=O)[O-])c1ccccc1", "F"],
  ["CCOC(=O)c1ccc(NC(=S)N2CCOCC2)cc1", "T"],
  ["CC1(C)C2CC[C@]3(C)C(C(=O)C=C4[C@@H]5C[C@@](C)(C(=O)O)CC[C@]5(C)CCC43C)[C@@]2(C)CC[C@@H]1OC1OC(C(=O)O)C(O)C(O)C1OC1OC(C(=O)O)C(O)C(O)C1O (some centres not stated) (tested in a mixture with another compound)", "F"],
  ["CN(C)CC1CN(C)CC(CN(C)C)C1(O)C(C(=O)N(C)C)c1ccccc1 (configuration not stated)", "T"],
  ["Cc1ccc(N=NN(C)C)cc1NC(=O)NCC(=O)OC(C)(C)C", "F"],
  ["CCNC(CCCC1CCCCC1)C(=O)O (configuration not stated)", "F"],
  ["CC(C)CC(C)Cc1ccncc1 (configuration not stated)", "T"],
  ["CC(=O)OCC1OC(OCC[N+](C)(C)C)C(OC(C)=O)C(OC(C)=O)C1OC(C)=O (configuration not stated)", "T"],
  ["CC1(C)CCCCCCC2CC2CCCCCC(C)(C)C1=O (configuration not stated)", "T"]
]}

## Input Does CC12CC(=O)NC(=O)N1CCS2 (configuration not stated) have a reported growth inhibition of at least -10%?
## Output F

## Input Same thing, different compound: `O=C1C=C(C2CCCCC2)C(=O)c2ccccc21`
## Output T

This collection of values is drawn from PubChem BioAssay (NCI).
